The reported measurements were obtained from ChEMBL document CHEMBL3612011.

- protocol_notes: Selectivity index, ratio of Ki for MOR in guinea pig cerebellum membranes to Ki for KOR in mouse whole brain membranes without cerebellum
- Assay type: cell membranes
Recorded measurements of Ratio Ki, one per entry
measured_metric: Ratio Ki

INSERT INTO results (compound, measured_metric, measured_result) VALUES
  ('CN(C(=O)Cc1ccccc1)[C@H]1C[C@@]23CCN(CC4CC4)[C@H]4CCC1C[C@]42Cc1ccc(O)cc13 (single isomer, unassigned)', 'Ratio Ki', 5.42),
  ('CN(C(=O)c1ccccc1)[C@H]1C[C@@]23CCN(CC4CC4)[C@H]4CCC1C[C@]42Cc1ccc(O)cc13 (single isomer, unassigned)', 'Ratio Ki', 4.06),
  ('CN(C(=O)CCc1ccccc1)[C@@H]1C[C@@]23CCN(CC4CC4)[C@H]4CCC1C[C@]42Cc1ccc(O)cc13 (single isomer, unassigned)', 'Ratio Ki', 2.03),
  ('CN(C(=O)Cc1ccccc1)[C@@H]1C[C@@]23CCN(CC4CC4)[C@H]4CCC1C[C@]42Cc1ccc(O)cc13 (single isomer, unassigned)', 'Ratio Ki', 1.45),
  ('CN(C(=O)CCc1ccccc1)[C@H]1C[C@@]23CCN(CC4CC4)[C@H]4CCC1C[C@]42Cc1ccc(O)cc13 (single isomer, unassigned)', 'Ratio Ki', 0.966),
  ('CN(C(=O)/C=C/c1ccoc1)[C@@H]1C[C@@]23CCN(CC4CC4)[C@H]4CC[C@@H]1C[C@]42Cc1ccc(O)cc13', 'Ratio Ki', 1.14),
  ('CN(C(=O)CCc1ccccc1)[C@H]1C[C@@]23CCN(CC4CC4)[C@H]4C=C[C@@H]1C[C@]42Cc1ccc(O)cc13', 'Ratio Ki', 2.34),
  ('CN(C(=O)Cc1ccccc1)[C@H]1C[C@@]23CCN(CC4CC4)[C@H]4C=C[C@@H]1C[C@]42Cc1ccc(O)cc13', 'Ratio Ki', 7.05),
  ('CN(C(=O)c1ccccc1)[C@@H]1C[C@@]23CCN(CC4CC4)[C@H]4C=C[C@@H]1C[C@]42Cc1ccc(O)cc13', 'Ratio Ki', 0.61),
  ('CN(C(=O)CCc1ccccc1)[C@@H]1C[C@@]23CCN(CC4CC4)[C@H]4C=C[C@@H]1C[C@]42Cc1ccc(O)cc13', 'Ratio Ki', 1.09),
  ('CN(C(=O)c1ccccc1)[C@@H]1C[C@@]23CCN(CC4CC4)[C@H]4CCC1C[C@]42Cc1ccc(O)cc13 (single isomer, unassigned)', 'Ratio Ki', 0.516),
  ('CN(C(=O)/C=C/c1ccoc1)[C@H]1C[C@@]23CCN(CC4CC4)[C@H]4CC[C@@H]1C[C@]42Cc1ccc(O)cc13', 'Ratio Ki', 5.73),
  ('CN(C(=O)/C=C/c1ccoc1)[C@@H]1C[C@@]23CCN(CC4CC4)[C@H]4C=C[C@@H]1C[C@]42Cc1ccc(O)cc13', 'Ratio Ki', 2.48);
